- systemUnderTest: squalene synthesizing enzyme (Rattus norvegicus, UniProt Q02769)
- Sequence (Q02769 1-416): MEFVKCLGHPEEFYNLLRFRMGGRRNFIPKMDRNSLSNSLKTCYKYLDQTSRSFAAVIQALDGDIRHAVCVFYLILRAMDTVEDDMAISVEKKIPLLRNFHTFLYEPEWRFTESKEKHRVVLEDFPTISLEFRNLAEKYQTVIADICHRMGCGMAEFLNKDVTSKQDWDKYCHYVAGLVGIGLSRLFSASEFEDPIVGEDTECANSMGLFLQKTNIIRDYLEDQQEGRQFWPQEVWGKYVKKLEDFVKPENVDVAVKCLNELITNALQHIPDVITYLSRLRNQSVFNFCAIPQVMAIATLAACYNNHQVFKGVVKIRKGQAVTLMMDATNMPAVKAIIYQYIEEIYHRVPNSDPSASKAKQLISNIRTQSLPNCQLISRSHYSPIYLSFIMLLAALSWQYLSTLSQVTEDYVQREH
Reported log10 of IC50 values for a set of molecules
Kindly note that the scale is log10 and the underlying IC50 is in nM.

Guide cases for log10 of IC50, answers given:
| molecule | log10 of IC50 |
| --- | --- |
| CO[C@@H]1CN(c2ccc(C#C[C@@]3(O)CN4CCC3CC4)c(Cc3ccccc3)n2)C[C@H]1OC [Example 104] | 0.83 |
| OC1(C#Cc2cnc(-c3ccccn3)cc2Cc2ccccc2)CN2CCC1CC2 (stereo not drawn) [Example 2] | 1.30 |
| OC1(C#Cc2cnc(-c3ccc4c(c3)OCO4)nc2Cc2ccccc2)CN2CCC1CC2 (stereo not drawn) [Example 19] | 1.00 |
| CO[C@@H]1CN(c2nc(Cc3ccccc3)c(C#C[C@@]3(O)CN4CCC3CC4)cc2Cl)C[C@H]1O [Example 116] | -0.11 |
| CO[C@@H]1CN(c2nc(Cc3ccccc3)c(C#C[C@@]3(O)CN4CCC3CC4)cc2Br)C[C@H]1O [Example 117] | 0.65 |
| CO[C@H]1CN(c2ccc(C#C[C@@]3(O)CN4CCC3CC4)c(Cc3ccccc3)n2)C[C@H]1O [Example 106] | 0.84 |
| O[C@]1(C#Cc2cnc(-c3ccc4c(c3)OCO4)cc2Cc2ccccc2)CN2CCC1CC2 [Example 180] | 0.80 |
| CO[C@@H]1CN(c2ccc(C#C[C@@]3(O)CN4CCC3CC4)c(Cc3ccccc3)n2)C[C@@H]1F [Example 110] | 0.32 |

Qu. Supply recorded log10 of IC50 for CO[C@H]1C(=O)N(c2ccc(C#C[C@@]3(O)CN4CCC3CC4)c(Cc3ccccc3)n2)C[C@H]1O [Example 124] here.
Ans. 0.26

Qu. Identify the reported log10 of IC50 for the following entry. O=C1[C@H](O)CCN1c1ccc(C#C[C@@]2(O)CN3CCC2CC3)c(Cc2ccccc2)n1 [Example 142]
Ans. 0.70

Qu. Indicate its recorded log10 of IC50; the molecule in question is O[C@]1(C#Cc2ccc(OCC3OCCO3)nc2Cc2ccccc2)CN2CCC1CC2 [Example 153]
Ans. 1.04

Qu. Output log10 of IC50 of OCCCOc1ccc(C#C[C@@]2(O)CN3CCC2CC3)c(Cc2ccccc2)n1 [Example 166]
Ans. 1.18

Qu. Return the recorded log10 of IC50 value; entry: CO[C@@H]1CN(c2ccc(C#C[C@@]3(O)CN4CCC3CC4)c(Cc3ccccc3)n2)C[C@H]1O [Example 10]
Ans. 0.30

Qu. Annotate the molecule O=C1N(c2ccc(C#C[C@@]3(O)CN4CCC3CC4)c(Cc3ccccc3)n2)CCC12OCCO2 [Example 138] with its measured log10 of IC50.
Ans. -0.46

Qu. Give recorded log10 of IC50. COC1CCN(c2ccc(C#CC3(O)CN4CCC3CC4)c(Cc3ccccc3)n2)CC1 (stereo not drawn) [Example 9]
Ans. 1.53

Qu. Please report log10 of IC50 for the following molecule: OC1(C#Cc2cnc(-c3ccc4c(c3)OCO4)cc2Cc2ccccc2)CN2CCC1CC2 (stereo not drawn) [Example 1]
Ans. 1.00

Qu. Give the measured log10 of IC50 for CO[C@@H]1CCN(c2ccc(C#C[C@@]3(O)CN4CCC3CC4)c(Cc3ccccc3)n2)C1=O [Example 144]
Ans. 0.41

Qu. Identify measured log10 of IC50 corresponding to O[C@]1(C#Cc2cc(Cl)c(N3CCC4(C3)OCCO4)nc2Cc2ccccc2)CN2CCC1CC2 [Example 119]
Ans. 0.59
